The entries below come with measured Th-T fluorescence, mean of three wells values attached.
Biological target: Aβ42 (Homo sapiens)
Assay: Th-T (thioflavin-T) assay of Aβ42 aggregation
Format: biochemical
Settings: reading M23; Supplementary Fig. 47 source data
Assay Endpoint: Th-T fluorescence, mean of three wells

> print(dat)
                                   molecule  recorded.result
1  C=C1CC[C@H]2[C@]3(C)C[C@@H](C=C(C)C)O[C@H]3CC[C@]2(C)[C@@H]1Cc1c(OC)oc(CO)c(C)c1=O           2.7833
2  C=C1CCC2C(C)(CC(=O)C=C(C)C)C(O)CCC2(C)C1Cc1c(OC)oc(C)c(C)c1=O (stereo not shown)            3.453
3  C=C1CCC2C(C)(CC(=O)C=C(C)C)C(O)CCC2(C)C1Cc1c(OC)oc(CO)c(C)c1=O (stereo not shown)            2.778
4  C=C1CC[C@H]2[C@]3(C)C[C@H](C=C(C)C)O[C@H]3CC[C@]2(C)[C@@H]1Cc1c(OC)oc(CO)c(C)c1=O              3.6

----------
Biological target: Aβ42 (Homo sapiens)
Experiment: Th-T (thioflavin-T) assay of Aβ42 aggregation
Type: biochemical
Conditions: compound at 50; reading M44 of time course
Assay Endpoint: Th-T fluorescence, mean of three wells

> print(dat)
                                   compound                          assay.endpoint  recorded.result
1  C=C1CCC2C(C)(CCC=C(C)C)C(O)CCC2(C)C1Cc1c(OC)oc(CO)c(C)c1=O (centres unmarked) [Compound 12]  Th-T fluorescence, mean of three wells              1.5
2  C=C1CC[C@@H]2[C@](C)(CC[C@H]3O[C@H](C=C(C)C)C[C@@]23C)[C@@H]1Cc1c(OC)oc(CO)c(C(=O)OC)c1=O [Compound 21]  Th-T fluorescence, mean of three wells           0.2135
3  C=C1CCC2C(C)(CCC=C(C)C)C(O)CCC2(C)C1Cc1c(OC)oc(CO)c(C(=O)OC)c1=O (centres unmarked) [Compound 13]  Th-T fluorescence, mean of three wells           0.4555
4  C=C1CCC2C(C)(CCC=C(C)C)C(O)CCC2(C)C1Cc1c(OC)oc(C)c(C(=O)OC)c1=O (centres unmarked) [Compound 14]  Th-T fluorescence, mean of three wells             4.79
5  C=C1CC[C@@H]2[C@](C)(CC[C@H]3O[C@H](C=C(C)C)C[C@@]23C)[C@@H]1Cc1c(OC)oc(CO)c(C)c1=O [Compound 20]  Th-T fluorescence, mean of three wells            2.118

----------
Target: Aβ42 (Homo sapiens, UniProt P05067)
Sequence (P05067 672-713): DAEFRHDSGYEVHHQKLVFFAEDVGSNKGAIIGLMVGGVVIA
Assay: Th-T (thioflavin-T) assay of Aβ42 aggregation
Type: biochemical
Settings: reading M127; compound at 10 (head suffix _10)
Assay Endpoint: Th-T fluorescence, mean of three wells (Fig. 7a)

> print(dat)
                                   compound  recorded.result
1  C=C1CC[C@@H]2[C@](C)(CC[C@H]3O[C@H](C=C(C)C)C[C@@]23C)[C@@H]1Cc1c(OC)oc(CO)c(C)c1=O            3.195
2  C=C1CCC2C(C)(CCC=C(C)C)C(O)CCC2(C)C1Cc1c(OC)oc(C)c(C(=O)OC)c1=O (centres unmarked)             2.92
3  C=C1CCC2C(C)(CCC=C(C)C)C(O)CCC2(C)C1Cc1c(OC)oc(CO)c(C)c1=O (centres unmarked)            2.439
4  C=C1CC[C@@H]2[C@](C)(CC[C@H]3O[C@H](C=C(C)C)C[C@@]23C)[C@@H]1Cc1c(OC)oc(CO)c(C(=O)OC)c1=O             1.72
5  C=C1CCC2C(C)(CCC=C(C)C)C(O)CCC2(C)C1Cc1c(OC)oc(CO)c(C(=O)OC)c1=O (centres unmarked)            1.546

Origin of values: paper PMC7156458
